- System: human leukocyte elastase (HLE) (Homo sapiens, UniProt P08246)
- Assay Method Text: inhibition of human leukocyte elastase (HLE): rate of inactivation kon and inhibition constant Ki* (koff/kon)
- Type: biochemical
- Setup Conditions: rate of inactivation kon of enzymatic activity; values are Kon × 10^-3
Cut-off 20000 M⁻¹ s⁻¹ on kon, inclusive. At or above means true (1); below means false (0).

{"Molecule": "CC(C)c1cccc2c1C(=O)N(COC(=O)C(C)(C)c1ccccc1)S2(=O)=O", "System": "human leukocyte elastase (HLE) (Homo sapiens, UniProt P08246)", "Category": "true (1)"}
{"Molecule": "COC(C(=O)OCN1C(=O)c2c(C(C)C)cccc2S1(=O)=O)c1ccccc1 (stereo not shown)", "System": "human leukocyte elastase (HLE) (Homo sapiens, UniProt P08246)", "Category": "true (1)"}
{"Molecule": "CC(C)(Oc1ccccc1Cl)C(=O)OCN1C(=O)c2ccccc2S1(=O)=O", "System": "human leukocyte elastase (HLE) (Homo sapiens, UniProt P08246)", "Category": "false (0)"}
{"Molecule": "CC(C)c1cccc2c1C(=O)N(COC(=O)C(O)c1ccccc1)S2(=O)=O (stereo not shown)", "System": "human leukocyte elastase (HLE) (Homo sapiens, UniProt P08246)", "Category": "true (1)"}
{"Molecule": "CC(C)(Oc1ccc(Cl)cc1)C(=O)OCN1C(=O)c2ccccc2S1(=O)=O", "System": "human leukocyte elastase (HLE) (Homo sapiens, UniProt P08246)", "Category": "false (0)"}
{"Molecule": "CC(C)(C(=O)OCN1C(=O)c2ccccc2S1(=O)=O)c1ccccc1", "System": "human leukocyte elastase (HLE) (Homo sapiens, UniProt P08246)", "Category": "false (0)"}
{"Molecule": "COc1cc(C(C)C)c2c(c1)S(=O)(=O)N(COC(=O)[C@H](OC)c1ccccc1)C2=O", "System": "human leukocyte elastase (HLE) (Homo sapiens, UniProt P08246)", "Category": "true (1)"}

====

Entries and their pKi values follow.
Sequence of the target: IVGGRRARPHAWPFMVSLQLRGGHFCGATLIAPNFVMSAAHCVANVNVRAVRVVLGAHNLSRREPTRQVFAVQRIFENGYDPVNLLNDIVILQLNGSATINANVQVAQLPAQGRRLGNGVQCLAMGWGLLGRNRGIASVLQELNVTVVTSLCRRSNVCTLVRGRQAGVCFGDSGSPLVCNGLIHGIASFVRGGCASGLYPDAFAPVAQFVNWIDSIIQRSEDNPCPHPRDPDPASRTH
pKi: −log10 of the molar value.

{"Smiles Representation": "CC(C)(C(=O)OCN1C(=O)c2ccccc2S1(=O)=O)c1ccccc1", "pKi": 7.74}
{"Smiles Representation": "CC(C)c1cccc2c1C(=O)N(COC(=O)C(C)(C)Oc1ccc(Cl)cc1)S2(=O)=O", "pKi": 9.22}
{"Smiles Representation": "CC(C)(Oc1ccccc1Cl)C(=O)OCN1C(=O)c2ccccc2S1(=O)=O", "pKi": 7.84}

====

Entries and their Ki values follow.
- System: human leukocyte elastase (HLE) (Homo sapiens)
- Sequence (P08246 30-267): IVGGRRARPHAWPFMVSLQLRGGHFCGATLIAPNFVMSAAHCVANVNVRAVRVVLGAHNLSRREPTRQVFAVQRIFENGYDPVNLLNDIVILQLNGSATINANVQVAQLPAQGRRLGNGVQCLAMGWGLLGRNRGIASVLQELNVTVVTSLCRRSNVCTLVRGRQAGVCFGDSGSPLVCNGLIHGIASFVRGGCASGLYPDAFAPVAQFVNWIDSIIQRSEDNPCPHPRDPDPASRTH

{"Molecule": "CC(C)c1cccc2c1C(=O)N(COC(=O)C(C)(C)c1ccccc1)S2(=O)=O [Example 1D]", "Ki": "1 nM"}
{"Molecule": "COc1cc(C(C)C)c2c(c1)S(=O)(=O)N(COC(=O)[C@@H](OC)c1ccccc1)C2=O [Example 1K]", "Ki": "0.09 nM"}
{"Molecule": "CC(C)c1cccc2c1C(=O)N(COC(=O)C(O)c1ccccc1)S2(=O)=O (centres unmarked) [Example 1G]", "Ki": "0.26 nM"}
{"Molecule": "COC(C(=O)OCN1C(=O)c2c(C(C)C)cccc2S1(=O)=O)c1ccccc1 (centres unmarked) [Example 1H]", "Ki": "0.3 nM"}
{"Molecule": "COc1cc(C(C)C)c2c(c1)S(=O)(=O)N(COC(=O)[C@H](OC)c1ccccc1)C2=O [Example 1I]", "Ki": "0.08 nM"}
{"Molecule": "CC(C)(Oc1ccc(Cl)cc1)C(=O)OCN1C(=O)c2ccccc2S1(=O)=O [Example 1B]", "Ki": "14.5 nM"}
{"Molecule": "COc1cc(C(C)C)c2c(c1)S(=O)(=O)N(COC(=O)C(C)(O)c1ccccc1)C2=O (centres unmarked) [Example 1J]", "Ki": "0.12 nM"}
{"Molecule": "CC(C)c1cccc2c1C(=O)N(COC(=O)C(C)(C)Oc1ccccc1Cl)S2(=O)=O [Example 1F]", "Ki": "0.8 nM"}
